Assay: Liver-targeted tissue distribution profile study in rats
Format: in vivo, rat
Conditions: PO 10 mg/kg, SD rats, liver, 24 h
experimental.readout: Measured Compound Concentration Liver-24 h

> print(dat)
                                   compound              measured
1  NS(=O)(=O)c1ccc(Cc2c(-c3cccc(C#CC4COC4)c3)nn(-c3nc(C(=O)O)cs3)c2CC2CC2)cc1F [Example 7]   +++ (5 μM≥+++>1 μM)
2  NS(=O)(=O)c1ccc(Cc2c(-c3ccc(F)c(C#CC4(O)COC4)c3)nn(-c3nc(C(=O)O)cs3)c2CC2CC2)cc1F [Example 1]  ++ (1 μM≥++>0.25 μM)
3  CC(C)(O)C#Cc1cc(-c2nn(-c3nc(C(=O)O)cs3)c(CC3CC3)c2Cc2ccc(S(N)(=O)=O)c(F)c2)ccc1F [Example 2]   +++ (5 μM≥+++>1 μM)
4  CC(C)(O)C#Cc1cccc(-c2nn(-c3nc(C(=O)O)cs3)c(CC3CC3)c2Cc2ccc(S(N)(=O)=O)c(F)c2)c1 [Example 6]   +++ (5 μM≥+++>1 μM)
5  NS(=O)(=O)c1ccc(Cc2c(-c3cccc(C#CC4(O)COC4)c3)nn(-c3nc(C(=O)O)cs3)c2CC2CC2)cc1F [Example 9]  ++ (1 μM≥++>0.25 μM)

* * *

Reported pIC50 by item:
Biological target: human recombinant C-terminal His-tagged LDHA (Homo sapiens (Human), UniProt P00338)
Assay: Human LDHA enzyme assay, human serum albumin (HSA) shift assay
Type: biochemical
Details: final concentration 10% HSA
pIC50: −log10 of the molar value.
experimental.readout: pIC50

> print(dat)
                                   compound      measured
1  CC1(C#Cc2cccc(-c3nn(-c4nc(C(=O)O)cs4)c(CC4CC4)c3Cc3ccc(S(N)(=O)=O)c(F)c3)c2)COC1 [Example 8]  8.00 to 9.00
2  NS(=O)(=O)c1ccc(Cc2c(-c3cccc(C#CC4COC4)c3)nn(-c3nc(C(=O)O)cs3)c2CC2CC2)cc1F [Example 7]  8.00 to 9.00
3  NS(=O)(=O)c1ccc(Cc2c(-c3ccc(F)c(C#CC4(O)CCC4)c3)nn(-c3nc(C(=O)O)cs3)c2CC2CC2)cc1F [Example 4]  8.00 to 9.00
4  CC(C)(O)C#Cc1cccc(-c2nn(-c3nc(C(=O)O)cs3)c(CC3CC3)c2Cc2ccc(S(N)(=O)=O)c(F)c2)c1 [Example 6]  8.00 to 9.00
5  NS(=O)(=O)c1ccc(Cc2c(-c3ccc(F)c(C#CC4(O)COC4)c3)nn(-c3nc(C(=O)O)cs3)c2CC2CC2)cc1F [Example 1]  8.00 to 9.00
6  NS(=O)(=O)c1ccc(Cc2c(-c3ccc(F)c(C#CC4CC4)c3)nn(-c3nc(C(=O)O)co3)c2CC2CC2)cc1F [Example 10]  8.00 to 9.00
7  CC1(C#Cc2cc(-c3nn(-c4nc(C(=O)O)cs4)c(CC4CC4)c3Cc3ccc(S(N)(=O)=O)c(F)c3)ccc2F)COC1 [Example 3]  8.00 to 9.00
8  NS(=O)(=O)c1ccc(Cc2c(-c3cccc(C#CC4(O)COC4)c3)nn(-c3nc(C(=O)O)cs3)c2CC2CC2)cc1F [Example 9]  8.00 to 9.00
9  CC(C)(O)C#Cc1cc(-c2nn(-c3nc(C(=O)O)cs3)c(CC3CC3)c2Cc2ccc(S(N)(=O)=O)c(F)c2)ccc1F [Example 2]        > 9.00

* * *

Experiment: Liver-targeted tissue distribution profile study in rats
Type: in vivo, rat
Conditions: PO 10 mg/kg, SD rats, liver, 4 h
experimental.readout: Measured Compound Concentration Liver-4 h

> print(dat)
                                   compound             measured
1  NS(=O)(=O)c1ccc(Cc2c(-c3cccc(C#CC4COC4)c3)nn(-c3nc(C(=O)O)cs3)c2CC2CC2)cc1F     ++++ (++++>5 μM)
2  CC(C)(O)C#Cc1cccc(-c2nn(-c3nc(C(=O)O)cs3)c(CC3CC3)c2Cc2ccc(S(N)(=O)=O)c(F)c2)c1     ++++ (++++>5 μM)
3  NS(=O)(=O)c1ccc(Cc2c(-c3cccc(C#CC4(O)COC4)c3)nn(-c3nc(C(=O)O)cs3)c2CC2CC2)cc1F  +++ (5 μM≥+++>1 μM)
4  NS(=O)(=O)c1ccc(Cc2c(-c3ccc(F)c(C#CC4(O)COC4)c3)nn(-c3nc(C(=O)O)cs3)c2CC2CC2)cc1F  +++ (5 μM≥+++>1 μM)
5  CC(C)(O)C#Cc1cc(-c2nn(-c3nc(C(=O)O)cs3)c(CC3CC3)c2Cc2ccc(S(N)(=O)=O)c(F)c2)ccc1F  +++ (5 μM≥+++>1 μM)
